Target: P. falciparum apicoplast DNA polymerase (Pf-apPOL) (Plasmodium falciparum, UniProt Q8ILY1)
Sequence (Q8ILY1 entry or part of it): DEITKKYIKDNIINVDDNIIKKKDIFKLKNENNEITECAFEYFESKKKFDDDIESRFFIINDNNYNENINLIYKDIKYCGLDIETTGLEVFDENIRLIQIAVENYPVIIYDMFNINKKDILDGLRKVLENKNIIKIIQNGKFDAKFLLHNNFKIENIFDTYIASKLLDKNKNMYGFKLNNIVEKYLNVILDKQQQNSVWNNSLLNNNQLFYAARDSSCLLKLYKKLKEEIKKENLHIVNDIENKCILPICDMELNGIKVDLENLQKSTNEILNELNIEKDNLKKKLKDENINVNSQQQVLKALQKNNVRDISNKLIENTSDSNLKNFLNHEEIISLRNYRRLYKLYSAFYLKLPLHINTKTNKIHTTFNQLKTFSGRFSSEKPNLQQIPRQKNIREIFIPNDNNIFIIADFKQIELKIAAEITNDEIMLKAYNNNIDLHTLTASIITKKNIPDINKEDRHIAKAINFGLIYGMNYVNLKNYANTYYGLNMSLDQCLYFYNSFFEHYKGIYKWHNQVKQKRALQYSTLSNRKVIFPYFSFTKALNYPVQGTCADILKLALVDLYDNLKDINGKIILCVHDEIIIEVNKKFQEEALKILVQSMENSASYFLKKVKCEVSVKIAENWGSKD
Experiment: Fluorescence-based high-throughput DNA polymerase assay (molecular beacon), primary screen and dose-response;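 also: test concentration in µM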
Type: biochemical
Settings: conc. 20; 180'; DRC-2
In this section, each of the molecules is paired with its reported % inhibition apPOL 180'.

| molecule | unit.text | % inhibition apPOL 180' |
| --- | --- | --- |
| COc1ccc(C)cc1NC(=O)Cn1ccc2c(=O)[nH]ccc21 [Molecule 15, COc1ccc(cc1NC(=O)Cn1ccc2c1cc[nH]c2=O)C] | % | 66 |
| Cc1cc(C)c(O)c(/N=C/c2cc([N+](=O)[O-])cc(Br)c2O)c1 | % | 17 |
| O=C(CSc1nc2ccccc2s1)Nc1ncc([N+](=O)[O-])s1 | % | -23 |
| O=C(CSc1nnc(-c2ccncc2)[nH]1)c1ccc(O)c(O)c1 | % | 68 |
